Test system: CCRIS mutagenicity, Ames/micronucleus/aberration tests
Experiment: CCRIS mutagenicity studies
Conditions: Test System: AMES SALMONELLA TYPHIMURIUM; Strain/Indicator: TA1538; Metabolic Activation: NONE; Method: STANDARD PLATE
The source made the active and inactive calls. No rule for the calls is given here.
Write down one outcome, taken from active, inactive

Check out these entries, answers already filled in.
- compound: "Cc1cc(N)c([N+](=O)[O-])c(C)c1N"
  qualitative.label: "inactive"
- compound: "O=C(O)c1ccccc1C1=c2cc3c4c(c2Oc2c1cc1c5c2CCCN5CCC1)CCC[N+]=4CCC3"
  qualitative.label: "inactive"
- compound: "c1ccccc1"
  qualitative.label: "inactive"
- compound: "NCCNCCNCCNCCN"
  qualitative.label: "inactive"
- compound: "CCNc1cc2oc(=O)cc(C)c2cc1C"
  qualitative.label: "inactive"
- compound: "Nc1ccc(O)c([N+](=O)[O-])c1"
  qualitative.label: "inactive"

[ask] Hi, sorry to bother you, what did the test record for `CCC(C)(C)OC` ?
[reply] inactive

###

Tested on: CCRIS mutagenicity, Ames/micronucleus/aberration tests
Experiment: CCRIS mutagenicity studies
Conditions: Test System: AMES SALMONELLA TYPHIMURIUM; Strain/Indicator: TA100; Metabolic Activation: NONE; Method: STANDARD PLATE
Activity calls are given as the source filed them. The rule behind the calls is not given here.
The categories you may choose from are t for active, f for inactive

Solved entries:
- compound.smiles: "CCOC(=O)c1[nH]c2ccccc2c1N=Cc1ccc([N+](=O)[O-])cc1"
  assay.target: "CCRIS mutagenicity, Ames/micronucleus/aberration tests"
  qualitative.label: "f"
- compound.smiles: "Cc1c(N)c(=O)n(-c2ccccc2)n1C"
  assay.target: "CCRIS mutagenicity, Ames/micronucleus/aberration tests"
  qualitative.label: "f"
- compound.smiles: "CC(C)C1=CC2=CC[C@@H]3[C@](C)(CCC[C@@]3(C)C(=O)O)[C@H]2CC1"
  assay.target: "CCRIS mutagenicity, Ames/micronucleus/aberration tests"
  qualitative.label: "f"

[ask] Give the logged outcome of this assay for the following compound: `Oc1ccc2c(ccc3c4ccccc4ccc23)c1`
[reply] f

[ask] GET /call?item= `Nc1cc([N+](=O)[O-])ccc1-c1ccc([N+](=O)[O-])cc1` returns the recorded outcome of this test.
[reply] t

[ask] For `CCCCCC(=O)Cc1cc(O)cc2c1C(=O)Oc1cc(O)c(C(=O)O)c(CCCCC)c1O2` , what call appears in the results of this test?
[reply] f

[ask] # outcome recorded in this test, key = `O=C(Cl)c1ccc([N+](=O)[O-])cc1`
[reply] f

[ask] Hello, I am checking results. What call was entered for `C[C@H]1CCC[C@H](O)CCCCCc2cc(O)cc(O)c2C(=O)O1` ?
[reply] f

[ask] # outcome recorded in this test, key = `CCc1cccc2c(CCO)c[nH]c12`
[reply] f

[ask] Hey, what did the test say about `c1ccc2c(c1)ccc1cc3c(ccc4ccncc43)cc12` ?
[reply] f

[ask] What outcome does the record of this test show for `Cc1cc2c(c3ccc4ccccc4c13)CCC2` ?
[reply] f

###

Tested on: CCRIS mutagenicity, Ames/micronucleus/aberration tests
Assay: CCRIS mutagenicity studies
Details: Test System: AMES SALMONELLA TYPHIMURIUM; Strain/Indicator: TA1535; Metabolic Activation: RAT, LIVER, S-9, AROCLOR 1254; Method: STANDARD PLATE
Activity calls are given as the source filed them. No rule for the calls is given here.
// one of active, inactive, no free text

- compound: "O=CC(O)C(O)C(O)CO (configuration not stated)"
  assay.target: "CCRIS mutagenicity, Ames/micronucleus/aberration tests"
  qualitative.label: "inactive"
- compound: "CCCCC=O"
  assay.target: "CCRIS mutagenicity, Ames/micronucleus/aberration tests"
  qualitative.label: "inactive"
- compound: "O=C1c2ccccc2C(=O)c2ccccc21"
  assay.target: "CCRIS mutagenicity, Ames/micronucleus/aberration tests"
  qualitative.label: "inactive"

[ask] Would you mind telling me which call this test gave `NCCNCCNCCNCCN` ?
[reply] inactive

[ask] Hello, I am checking results. What call was entered for `CN(C)CCCN1c2ccccc2Sc2ccc(Cl)cc21` ?
[reply] inactive

[ask] Recorded test outcome, item `CCN(N=O)c1ccccc1`
[reply] inactive

[ask] I'd appreciate the recorded outcome for `O=C(O)c1ccccc1Nc1cc(Cl)ccc1C(=O)O` from this test.
[reply] inactive

[ask] Give the logged outcome of this assay for the following compound: `COC(=O)/C(C#N)=C/c1ccccc1Br`
[reply] inactive

[ask] // return assay outcome for `CC(C)C1=CC2=CC[C@@H]3[C@](C)(CCC[C@@]3(C)C(=O)O)[C@H]2CC1`
[reply] inactive

[ask] Any idea what this test logged for `Oc1cccc2cc3cccc(O)c3c(O)c12` ?
[reply] inactive

[ask] Could you kindly confirm the outcome this assay logged for `Cc1ccc2cc3c(ccc4ccccc43)c3c2c1CC3` ?
[reply] active

[ask] Entry `N#Cc1ccccc1` : call = ?
[reply] inactive

These measurements were taken from PubChem BioAssay AID1259407.
